Each entry below carries its reported protease stability score.
- Run description: protease stability score; higher = more stable; yeast display proteolysis, trypsin and chymotrypsin;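 further: relative to predicted unfolded state with 0 unfolded-like and 1 meaning tenfold more protease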

Use these answered entries as a reference point.
>  <Construct sequence>
DEMEKWSEMALDLIAETVETGDEHTYRRNFDPHTRVNVNGRHLHGMEVWLKELHELGIDRIEMDMKDIRIQGDKAIIILTLIINGRFHHVSIVSVKIDGRWHLHSVKYD

>  <protease stability score>
0.33

$$$$
>  <Construct sequence>
HEKKEAYDYMVEILWKAMHTGDEKTLKHLFDPHTKVTQGDFEIHGMEQFSEHLKHARYRRVRVKFEDSHTQGEKVRMHTRLEFEGEIDGKRDTLEFETHQIVTKIDGRWVFESLEIE

>  <protease stability score>
0.7

$$$$
>  <Construct sequence>
SEEEEESKIISKLAIEETKTGDFESIRRNADPRARSDVDGQEMHGRELLEHIFRWIIEKAGVDKVETDLHELRIVGDKVHVRTKLHIGDWRIEVEIIVRKINGRWHLHSMRFSLR

>  <protease stability score>
0.646

$$$$
>  <Construct sequence>
DEETEIVERYERILVKALTTGDWRRIERLMDPNVKSVVNGREYHGMERYLELYRRIRSEIRINDLRIHKVTEVGNKIEAITVWHVEVDGRIEDLETRVFLRKIDGRWILEREEVA

>  <protease stability score>
0.827

$$$$
>  <Construct sequence>
NEEKRDSDILRRHLLEVLDTGDWDRMHELADPNAKTHFNGRDHHGREDMTHLFRELGVKHQELRSVHLQGNYVEITIHVSVDGRHVHLRFFMVKIDGKWRIRHMEIEWL

>  <protease stability score>
1.14

$$$$

In the following, a different sequence is considered.
Incoming: Please look up its protease stability score: `DEEEQQVEEVLRNMLRDFYTGDWKRLMKLADPHVQLDINGQLHHGREEAARFLIEWWEILGFKHSRLRHIDIQGEKLHIHGDKRVNGRTFELELIIIIINGRIRSEEIRVI`
Outgoing: 0.691

The reported numbers originate from the NTF2 design screens of Basanta et al. (2020).
